Data origin, for the record: PubChem BioAssay (NCATS)

tested on: AA1029; assay: qHTS profiling for inhibitors of Plasmodium falciparum proliferation (AID 504749); also: nearly all actives have a fitted effect of over 60% in size; details: P. falciparum in erythrocytes, SYBR Green DNA, 72 h; series mostly up to 12.8 µM
Results filed as inconclusive are left out. Calls of active or inactive are those of the source. Calls follow the shape of the dose curve; as a rule, active = well fitted inhibition curve with a large enough effect; inconclusive = small, poorly fitted or top-dose-only effect; inactive = flat fitted curve, though single readings scatter.
Reply using exactly one outcome from active, inactive

How was `Cc1onc(-c2ccccc2Cl)c1C(=O)N[C@H]1C(=O)N2[C@H]1SC(C)(C)[C@H]2C(=O)O` classified in this test?
inactive

How was `Cn1nnnc1SCC1=C(C(=O)O)N2C(=O)[C@@H](NC(=O)[C@@H](O)c3ccccc3)[C@@H]2SC1` classified in this test?
inactive

How was `CC(C)Oc1ccc2c(=O)cc(-c3ccccc3)oc2c1` classified in this test?
inactive

How was C[C@]12C=CC(=O)C=C1CCC1C2C(O)C[C@]2(C)C1CC[C@]2(O)C(=O)CO (some centres not stated) classified in this test?
inactive

How was `C[C@H](C(=O)O)c1cccc(Oc2ccccc2)c1` classified in this test?
inactive

How was `CCCCCCCCCc1ccc(OCCOCCOCCOCCOCCOCCOCCOCCOCCO)cc1` classified in this test?
inactive

How was `O=C1O[C@@H]([C@@H](O)CO)[C@@H](O)[C@H]1O` classified in this test?
inactive

How was `C[C@H]1CC[C@]2(OC1)O[C@@H]1C[C@@H]3[C@@H]4CC[C@H]5C[C@@H](O)CC[C@]5(C)[C@@H]4CC(=O)[C@@]3(C)[C@H]1[C@@H]2C` classified in this test?
inactive

How was CC1(C)SC2C(N3C(=O)C(c4ccccc4)NC3(C)C)C(=O)N2C1C(=O)O (configuration not stated) classified in this test?
inactive

How was `C[C@@]12CC[C@H]3[C@@H](CCC4=CC(=O)CC[C@]43C)[C@H]1CC[C@H]2C(=O)CO` classified in this test?
inactive

How was `C=CCOc1ccccc1OC[C@H](O)CNC(C)C` classified in this test?
inactive

How was `NC(=O)N[C@H]1NC(=O)NC1=O` classified in this test?
inactive

How was `CN(C)CCOC(=O)[C@@H](c1ccccc1)C1(O)CCCC1` classified in this test?
inactive

How was CO[C@]12C(COC(N)=O)C3=C(C(=O)C(C)=C(N)C3=O)N1CC1NC12 (some centres not stated) classified in this test?
active

How was `C[C@H]1CS(=O)(=O)CCN1/N=C\c1ccc([N+](=O)[O-])o1` classified in this test?
inactive

How was CCC(C)C(=O)OC1CC(O)C=C2C=CC(C)C(CCC(O)CC(O)CC(=O)O)C21 (configuration not stated) classified in this test?
inactive

How was `CC(=O)[C@@H]1CC[C@@H]2[C@@H]3C[C@H](C)C4=CC(=O)CC[C@@]4(C)[C@H]3[C@H](O)C[C@]21C` classified in this test?
inactive

How was CN(C)CCCOC1C(C(O)CO)OC2OC(C)(C)O[C@@H]21 (some centres not stated) classified in this test?
inactive

How was `CCN(CC)CCOC(=O)[C@@H](Cc1cccc2ccccc12)C[C@@H]1CCCO1` classified in this test?
inactive

How was `COc1cc(N[C@@H](C)CCCN)c2ncccc2c1` classified in this test?
active

How was `CC(=O)OCC(=O)[C@@]1(O)[C@H](C)C[C@@H]2[C@H]3CCC4=CC(=O)C=C[C@]4(C)[C@]3(F)[C@@H](O)C[C@@]21C` classified in this test?
inactive

How was `CC[N+](CC)(CC)CC[C@](O)(c1ccccc1)C1CCCCC1` classified in this test?
inactive

How was `NS(=O)(=O)c1cc2c(cc1C(F)(F)F)N[C@H](Cc1ccccc1)NS2(=O)=O` classified in this test?
inactive

How was `CO[C@@H]1C[C@H](O[C@H]2[C@@H](C)[C@H](O[C@@H]3O[C@@H](C)C[C@@H](N(C)C)[C@@H]3OC(C)=O)[C@H](C)C[C@]3(CO3)C(=O)[C@H](C)[C@H](OC(C)=O)[C@H](C)[C@H](C)OC(=O)[C@@H]2C)O[C@H](C)[C@@H]1OC(C)=O` classified in this test?
inactive

How was `NC(=O)c1cc[n+](CC2=C(C(=O)[O-])N3C(=O)[C@@H](NC(=O)Cc4cccs4)[C@@H]3SC2)cc1` classified in this test?
inactive

How was `CC(=O)N[C@H](CC(C)C)C(=O)O` classified in this test?
inactive

How was `C[C@]1(c2ccccc2)OC(C(=O)O)=CC1=O` classified in this test?
inactive

How was CC[C@@]12CCCN3CCc4c(n(c5ccccc45)[C@](O)(C(=O)OC)C1)C32 (some centres not stated) classified in this test?
inactive

How was `CN1CC(=O)N=C1N` classified in this test?
inactive

How was `COCC(=O)Nc1c(I)c(C(=O)NC[C@@H](O)CO)c(I)c(C(=O)N(C)C[C@@H](O)CO)c1I` classified in this test?
inactive

How was `COc1ccc(C[C@@](C)(N)C(=O)O)cc1OC` classified in this test?
inactive

How was `CC(C)(C)NC(=O)[C@@H]1CC[C@@H]2[C@@H]3CC[C@@H]4NC(=O)C=C[C@@]4(C)[C@H]3CC[C@]21C` classified in this test?
inactive

How was N[C@@H]1C(O)OC(CO)C(O)C1O (some centres not stated) classified in this test?
inactive

How was CNC1CC(N)[C@H](O)[C@@H](O[C@@H]2OC(CO)C3OC4(OC(C(N)CO)C(O)C(O)C4O)O[C@@H]3[C@H]2O)C1O (some centres not stated) classified in this test?
inactive

How was CC1(C)OC2CO[C@]3(COS(N)(=O)=O)OC(C)(C)OC3C2O1 (some centres not stated) classified in this test?
inactive

How was `COC(=O)[C@@H]1[C@@H]2C[C@H]3c4[nH]c5cc(OC)ccc5c4CCN3C[C@@H]2C[C@H](OC(=O)/C=C\c2cc(OC)c(OC)c(OC)c2)[C@H]1OC` classified in this test?
active

How was CCCC(=O)O[C@]1(C(=O)CO)CCC2[C@@H]3CCC4=CC(=O)CC[C@]4(C)C3C(O)C[C@]21C (some centres not stated) classified in this test?
inactive
